- EXPERIMENTAL_PROTOCOL: soluble fraction after stress (log2 fold change); higher = more stays soluble; pooled small domains, quantitative proteomics
- EXPERIMENTAL_SETUP: stress: pH 4
REPORTED_PROPERTY: soluble fraction (log2)

1) HMLMLTPGQVSNSLNVSTATVRRWSARFARHLSPQPPNRKRSYTPDDLATLARVRDLSASGTSLAQIDIAL; -0.29
2) HMTEQLTLVGKTGVTTTDLRPSGKVEVDGKRYDAVADNGAFISKGAHIKVVRYVTGQVYVVPTD; -0.146
3) HMGGPRDVPYSTFLIEVEKGQVAEVTIQDHKITGTYKNSNEPFITNAPDDPDLVSRLIKYGVGVQAKPPE; 0.0182
4) HMDVNSRIRQFLKKMKITVQTFESSIGKTNGYIAHTKSPTAGVLAEIAKVYPDLNLDWLITGEGEMLKN; -0.0635
5) HMDHKTKLQEVLQKSGDVFIEYRLIKEEGPAHERIFWIEVYVDDQLIGTGQGKSKKLAEQAAAENALAALE; -1.15
6) HMRTSPGADYEKTYYTIQSGDNLGAIAEKMGVSVADLKDWNDISGTKIYAGKKLVIYVKKGST; -0.209
7) HMNSSLLGKRIKSLREDHDLTQKELSLMIGLTPKMISFYENNQRTPPLDILLKLAKIFEVSVDYLIGYA; -0.0642

----------
- EXPERIMENTAL_PROTOCOL: soluble fraction after stress (log2 fold change); higher = more stays soluble; pooled small domains, quantitative proteomics
- EXPERIMENTAL_SETUP: stress: pH 4
soluble fraction (log2) for assorted sequences
REPORTED_PROPERTY: soluble fraction (log2)

1) HMRAPIGFRISNRRKSLKISQVALARLVGISPSYLNLIENNKRDVGGALLQRVALHLNIDIDDL; -0.219
2) HMNEYLPEAVQKLLEVMEYDIPYTSNELMERLGLKAKEGFRRNYLHPAMEMKLIQMTIPDKPNSRNQRYLR; -0.248
3) HMRQYPSGVFKEEGVKAVYIHAGTPFLVIAAQYKIPLARLFEWNNLLPSTEARISQVIYLERPG; 0.238
4) HMRNTPQRRHAILALLSEQGEVSVDALAKRFSTSEVTIRKDLAAMESHGLLLRRYGGAVPMPQELI; 0.0719
5) HMNIDEIFLTKNEIYFSFEYQKKSQLDRYSKIISLDHRIDKNTAYAYANKKQFLNFINLNIDYKIIDNSF; -1
6) HMTNPPTPADTLFNTVRGVLQSILKSPMKDTEVASALNVSKAQARSWLQRLSDEGLIEKRKNPTAYVL; -0.321
7) HMPVAPTYALTVKTDPPSANVRLLNSPTPYQPGVRLPSGNYDIEVTQSGYATRKESVRIADRDVALNIAL; 0.0432
8) HMDAVSYTQFMQDAKAGRIKKVIVHQSGILDVTTTEGRRFNLTSPGDLWMVGDLVKDGVDVVGAP; 0.139
9) HMQFQVHEIKGKEYYIHVVEKGNTLYAISRMYSVPIETLKEENPRLNTTELTIGDRLLIPLDEVKRKNIE; -0.316
10) HMQDFEEILKNAKIEDFKHTQTGEDLKVLKIEDKIEDFKGFNAYLVKNQIAYYSKFARGFVVKNIEKLQGV; 0.155
11) HMTDFDWSLFTQQLKRFNLFLSYDDREKLQTFQTLYGLNELDLAEYVAKASAGEKNGLNFNYLRQLINKEK; -1.08
12) HMGMVDKSMYSRYDVGDLVKVLRGPLEGSEGHITEINTDTGTVKVETVFFGRSTVVEVDFSEIDK; -1.35
13) HMETLETYTSRLRQLEDITNNFKGVDKSFAIQAGREIRVMVVPEQVSDADMILMARDISKAIEAELEYPGQ; -0.315
14) HMGRMTRKDRALATDLYGRIVGNVDDFHEGRIDYETFSERQRGLWTTLDAAGPEVKRAVLADIRERL; 0.23
15) HMINDKLQHLFSLFPAMDKELKRKGITRQILWVEYKKQYPLGFGRSQFNSYFAAWKAQVSPS; 0.204
16) HMEQVVFNGTGRRKSSIARVRIMSGKGNITVNGKALDEYFGEETLKVIVRQPLTVTDTLDKYDVIATVK; -0.0364
17) HMRGADNAASILKEVGPHPEDGKPITVRSGRYGPYVKHGTTNATLPKDIKPEEITLDEAIALINERVAKG; -0.143
18) HMKRITGHLTEKNKKWYAVINLYDTDGKRKEKWQGLNLDANKGNKREAEHRLRQILDQYNTD; 0.125
19) HMRTLKDSTEYLIRSMLLRGEMKVGEIYSANALAKELNISNSPVREAMMSLVDRGLLENVRNRGFRVV; -0.115
20) HMNIDEIIGKKAVVIESIDNLQGTGKVRYQGMEWTARAEEENDRIEKDAEVEIIAVKGVKLIVKMK; -0.19
21) HMSKTQYTFKEVGSQFQLFAPSTKHTIMISADHPKYGWLTNQDQGRVINVYDTGKMTSSQDYYGLYKEVT; -0.589
22) HMLPGERFKVKIAQAGKEKKQGIGYLNDGTMVVIENGIEKVGEEVEAVVIKVIQSSAGKIIFSEVAK; 0.0394
23) HMAAFGDLLSELRRDMNMTQDELAKVLFVSPGTISNYENNIHFPDVPKLKQIAQYFGVTTDYLLG; -1
24) HMVKLSVGDIVQFAGGPHYVSSSAAKPASSPTAGPAKVTMIYQGAKHPYHIVHTTSASTVWGWVDADKVVK; -0.208
